assay-notes: qHTS assay to identify small molecule antagonists of the vitamin D receptor (VDR) signaling pathway - cell viability counter screen (AID 743225); note: nearly all actives have a fitted effect of over 50% in size
test-settings: VDR-bla HEK293T viability, CellTiter-Glo luminescence, 16 h; series mostly up to 61 µM
Records with an inconclusive call do not appear. The source made the active and inactive calls. Calls come from the whole dose curve; as a rule, active = well fitted cell-killing curve with a large enough effect in the repeat runs; inconclusive = weak or mixed curves, or effect the other way; inactive = no such curve, though single readings can be large or run the other way.
Respond only with the outcome that fits, drawn from active, inactive

CC(C)c1ccc(C#N)cc1: inactive
COc1ccc(/C=C/C(=O)c2ccc(OC)cc2OC)cc1: inactive
COc1ccc(-c2cc(=S)ss2)cc1: inactive
CN1CCCN(C(c2ccccc2)c2ccc(Cl)cc2)CC1 (configuration not stated): active
CC(=O)OCCC(C)CC(C)(C)C (configuration not stated): inactive

Exercise: How did this test come out for CCC(CO)(CO)CO ?
Key: inactive

Exercise: How did this test come out for Cc1ccc(Nc2c(F)cccc2Cl)c(CC(=O)O)c1 ?
Key: inactive

Exercise: How did this test come out for COc1cc(NC(C)CCCN)c2ncccc2c1 (configuration not stated) ?
Key: inactive

---

assay-notes: qHTS assay to test for compound auto fluorescence at 590 nm (red) in HepG2 cells (AID 720674); note: % is set by controls: 0 for no effect and ±100 for the full control effect
test-settings: HepG2 autofluorescence, red 540/590 nm, 1 h; series mostly up to 91.3 µM
Calls of active or inactive are those of the source. Calls follow the shape of the dose curve; as a rule, active = well fitted curve in the direction sought with a large enough effect in the repeat runs; inconclusive = weak or mixed curves; inactive = flat fitted curve, though single readings scatter.
endpoint-label: fluorescence, relative to Rose Bengal

CC(C)(C(=O)c1cccnc1)c1cccnc1: -0.433% [at 18.6 µM] (inactive)
O=C(O)CN1C(=O)c2cccc3cccc(c23)C1=O: inactive
C=Cc1ccc(OC(C)=O)cc1: inactive
CC(C)COC(=O)COc1cc(Cl)c(Cl)cc1Cl: inactive
CCN(CC)C(=O)/C(C#N)=C/c1cc(O)c(O)c([N+](=O)[O-])c1: inactive

Here are 5 compounds. What values of fluorescence, relative to Rose Bengal were reported for them?
1. CN1C(CSCC(F)(F)F)Nc2cc(Cl)c(S(N)(=O)=O)cc2S1(=O)=O (stereo not given)
2. CC[C@H]1OC(=O)[C@H](C)[C@@H](O[C@H]2C[C@@](C)(OC)[C@@H](O)[C@H](C)O2)[C@H](C)[C@@H](O[C@@H]2O[C@H](C)C[C@H](N(C)C)[C@H]2O)[C@](C)(O)C[C@@H](C)CN(C)[C@H](C)[C@@H](O)[C@]1(C)O
3. COC(=O)c1sccc1S(N)(=O)=O
4. O=C(c1ccccc1)c1ccc(O)cc1
5. O=C(O)CCC(=O)c1ccc(-c2ccccc2)cc1

Key:
1. inactive
2. inactive
3. inactive
4. inactive
5. 0.795% [at 18.6 µM] (inactive)

---

assay-notes: qHTS assay to identify small molecule agonists of the androgen receptor (AR) signaling pathway in the presence of an antagonist - cell viability counter screen (AID 1259379); note: nearly all actives have a fitted effect of over 25% in size
test-settings: MDA-kb2 viability, CellTiter-Fluor, 16 h; series mostly up to 92.4 µM
Inconclusive results are not listed. The source made the active and inactive calls. Calls come from the whole dose curve; as a rule, active = well fitted cell-killing curve with a large enough effect in the repeat runs; inconclusive = weak or mixed curves, or effect the other way; inactive = flat fitted curve, though single readings scatter.
Respond only with the outcome that fits, drawn from 1 for active, -1 for inactive

Reference set (3 entries):
CC(=O)OCCC1CCCCC1: -1
O=C1CC[C@@H](C(=O)O)N1: -1
CCCCCCC(O)CCCCCCCCCCC(=O)OC (configuration not stated): -1

Exercise: How did this test come out for CCN(Cc1cccc(S(=O)(=O)O)c1)c1ccc(C(=C2C=CC(=[N+](CC)Cc3cccc(S(=O)(=O)O)c3)C=C2)c2ccc(O)cc2S(=O)(=O)[O-])cc1 ?
Key: 1

Exercise: How did this test come out for OCC(CO)n1cnc(-c2ccc(F)cc2)c1-c1ccnc(Oc2ccccc2)n1 ?
Key: -1

Exercise: How did this test come out for O=C(O)CNC(=O)c1ccccc1I ?
Key: -1

Exercise: How did this test come out for CC(C)(C)CCCCCCOC(=O)c1ccccc1C(=O)OCCCCCCC(C)(C)C ?
Key: -1
